Tested on: S. aureus RN4220
Assay: growth inhibition call (relative growth <= 0.2)
Conditions: 50 µM
Hit rate of the full screen: of about 39,000 compounds, about 500 (1.3%) were called active. The list comes from a sample in which actives are over-represented; it also holds close analogues and randomly drawn compounds.
The reply should be one of these categories: t (active), f (inactive)

Nc1nc(/C(=C/CC(=O)O)C(=O)N[C@@H]2C(=O)N3C(C(=O)O)=CCS[C@H]23)cs1 = f
CC(=O)Oc1cccc(O)c1 = f
C=CC1=C(C(=O)O)N2C(=O)C(NC(=O)C(=NO)c3csc(N)n3)C2SC1 (stereo unspecified) = t

What call does the record list for CC(C)NC(=O)[C@@H](C)n1ncn2cccc2c1=O ?
f

Also C[C@@H]1CN([C@@H](C)CO)C(=O)Cc2cc(NS(=O)(=O)c3ccccc3)ccc2O[C@@H]1CN(C)Cc1ccc(-c2ccccc2)cc1 ?
f

Try the compound O=C(CCCCCC(=O)Nc1ccccc1O)N/N=C/C[P+](c1ccccc1)(c1ccccc1)c1ccccc1
f

And for C=CC1=C(C(=O)O)N2C(=O)C(NC(=O)C(=NOCC(=O)O)c3csc(N)n3)C2SC1 (stereo unspecified) ?
f

What do you have for CC(C)(ON=C(C(=O)NC1C(=O)N2C(C(=O)[O-])=C(C[n+]3ccccc3)CSC12)c1csc(N)n1)C(=O)O (stereo unspecified) ?
f

Next compound: COC(=O)CCCCCCC(=O)Nc1ccc(NC(=O)CCCC[P+](c2ccccc2)(c2ccccc2)c2ccccc2)cc1
t

Entry to check: C[C@@H]1CN([C@H](C)CO)C(=O)Cc2cc(NS(C)(=O)=O)ccc2O[C@H]1CN(C)S(=O)(=O)c1cn(C)cn1
f

Record: OC[C@H]1O[C@@H]2O[C@H]3[C@H](O)[C@@H](O)[C@@H](O[C@H]4[C@H](O)[C@@H](O)[C@@H](O[C@H]5[C@H](O)[C@@H](O)[C@@H](O[C@H]6[C@H](O)[C@@H](O)[C@@H](O[C@H]7[C@H](O)[C@@H](O)[C@@H](O[C@H]1[C@H](O)[C@H]2O)O[C@@H]7CO)O[C@@H]6CO)O[C@@H]5CO)O[C@@H]4CO)O[C@@H]3CO
f

And the next one, O=C(C[C@@H]1CC[C@H](NC(=O)CN2CCOCC2)[C@@H](CO)O1)NCCc1ccccc1 ?
f

Entry COc1cc(N2CCC(N(C)C)CC2)ccc1Nc1ncc(Cl)c(Nc2ccccc2P(C)(C)=O)n1 please
f

Same lookup for NC(=O)c1cc[n+](CC2=C(C(=O)[O-])N3C(=O)C(NC(=O)Cc4cccs4)C3SC2)cc1 (stereo unspecified) , please.
t

Ok, now Nc1nc(C(=CCC(=O)O)C(=O)NC2C(=O)N3C(C(=O)O)=CCSC23)cs1 (stereo unspecified)
t

Continue with COc1ccc2c3c(n(c2c1)C)[C@@H](CO)N(C[C@]13CCN(CC1)C(=O)c1ccccc1F)C(=O)Nc1ccccc1F
f

---

System: S. aureus RN4220
Assay: growth inhibition call (relative growth <= 0.2)
Conditions: 50 µM
Out of some 39,000 compounds screened, about 500 (1.3%) were called active. The sample as a whole holds a higher share of actives than the screen did.
measurement.name: growth inhibition call

COc1ccccc1CNC(=O)C[C@H]1CC[C@@H]2[C@H](COC[C@H](O)CN2C(=O)Nc2ccc(Cl)cc2)O1 = inactive
COc1ccccc1CNC(=O)C[C@@H]1CC[C@H]2[C@@H](COC[C@H](O)CN2C(=O)Nc2ccc(F)cc2)O1 = inactive
COc1ccccc1CNC(=O)C[C@@H]1CC[C@H]2[C@@H](COC[C@H](O)CN2C(=O)Nc2ccc(Cl)cc2)O1 = inactive

---

System: S. aureus RN4220
Experiment: growth inhibition call (relative growth <= 0.2)
Conditions: 50 µM
Hit rate of the full screen: of about 39,000 compounds, about 500 (1.3%) were called active. The list comes from a sample in which actives are over-represented; it also holds close analogues and randomly drawn compounds.
Field 'call' accepts class 1 (active), class 0 (inactive)

C[C@H](CO)N1C[C@H](C)[C@@H](CN(C)Cc2ccccc2)Oc2ccc(NC(=O)Cn3cnnn3)cc2CC1=O = class 0
Cc1ccc(S(=O)(=O)N(c2cccc(-n3cc(CCC(=O)NO)nn3)c2)S(=O)(=O)c2ccc(C)cc2)cc1 = class 1
CC(C)NC(=O)N(C)C[C@@H]1Oc2ccc(NC(=O)CCCN(C)C)cc2CC(=O)N([C@@H](C)CO)C[C@H]1C = class 0
Nc1ccc(-n2cc(CCC(=O)NO)nn2)cc1 = class 0

Could you check what this test reported for C[C@@H]1CN([C@@H](C)CO)C(=O)c2cccc(NC(=O)Nc3ccc(C(F)(F)F)cc3)c2O[C@H]1CN(C)C(=O)NC1CCCCC1 ?
class 0

Another molecule to look at: C[C@H]1CN([C@@H](C)CO)S(=O)(=O)c2ccc(C#CCN(C)C)cc2O[C@H]1CN(C)Cc1cccnc1
class 0

Proceed to Cc1ccc(C(=O)Oc2ccc(/C=N/c3cccs3)cc2)cc1
class 0

Another: COC(=O)[C@@H](N)Cc1ccc(-n2cc(CCC(=O)NO)nn2)cc1
class 1

Also check Cc1noc(C)c1S(=O)(=O)Nc1ccc2c(c1)CC(=O)N([C@H](C)CO)C[C@@H](C)[C@@H](CN(C)Cc1ccncc1)O2
class 0

---

System: S. aureus RN4220
Experiment: growth inhibition call (relative growth <= 0.2)
Details: 50 µM
The campaign covered roughly 39,000 compounds. About 500 (1.3%) were called active. This excerpt belongs to a sample that is enriched for actives.
measurement.name: growth inhibition call

Example entries begin here.
CCS(=O)(=O)N1C[C@]2(CN(C2)S(=O)(=O)c2cn(cn2)C)c2c([nH]c3cc(ccc23)OC)[C@H]1CO = inactive
O=C(NO)c1cccc(C(=O)N/N=C/c2cc(I)cc(I)c2O)c1 = inactive
Cc1scc2c1N(C(=O)CN1CCN(C)CC1)c1ccccc1NC2=O.Cl = active
CN1CCN(CC(=O)N2c3ccccc3C(=O)Nc3cccnc32)CC1.Cl.Cl = inactive
COc1cc(NC(=O)c2cccc(-n3cc(NC(=O)Nc4cccc(C)c4)cn3)c2)cc(OC)c1OC = inactive

As a next step, examine the compound that follows.
Quick one: growth inhibition call of COc1ccc2c3c(n(c2c1)C)[C@H](CO)N(CC1CCOCC1)C[C@]13CN(C1)C(=O)Cc1cccnc1 ?
inactive

---

Test system: S. aureus RN4220
Assay: growth inhibition call (relative growth <= 0.2)
Details: 50 µM
Hit rate of the full screen: of about 39,000 compounds, about 500 (1.3%) were called active. Only a selection was taken, and actives are over-represented in it overall.
Answer with one of the outcomes given here: active, inactive

Please review the entries below; each comes with its answer.
O=C(C[C@H]1CC[C@H]2[C@@H](COC[C@@H](O)CN2C(=O)Nc2ccc(Cl)c(Cl)c2)O1)NCc1ccc(Cl)c(Cl)c1 = inactive
C[C@H](CO)N1C[C@H](C)[C@H](CN(C)S(=O)(=O)c2cn(C)cn2)Oc2ccc(NC(=O)NC3CCCCC3)cc2C1=O = inactive
Cc1noc(C)c1NC(=O)Nc1ccc2c(c1)C(=O)N([C@H](C)CO)C[C@@H](C)[C@H](CN(C)C(=O)Nc1cccc3ccccc13)O2 = inactive
CON=C(C(=O)NC1C(=O)N2C(C(=O)O)=C(CSC(=O)c3ccco3)CSC12)c1csc(N)n1.Cl (stereo unspecified) = active
COc1cc(C2c3cc4c(cc3C(OC3OC5COC(C)OC5C(O)C3O)C3COC(=O)C23)OCO4)cc(OC)c1O (stereo unspecified) = inactive
O=C(C[C@@H]1CC[C@@H]2[C@H](COC[C@H](O)CN2C(=O)Nc2ccc(Cl)c(Cl)c2)O1)NCc1ccncc1 = inactive

Could you check what this test reported for CCC[C@H]1CN(S(=O)(=O)c2c(C)cc(C)c3nonc23)C[C@@H]1N ?
inactive

---

Tested on: S. aureus RN4220
Experiment: growth inhibition call (relative growth <= 0.2)
Settings: 50 µM
In all, about 39,000 compounds went through this assay and about 500 (1.3%) were called active. The full list was thinned out, with actives kept by preference.
Your response should consist of one outcome taken from active, inactive

These recorded examples may help you get a feel for the data.
Cc1noc(C)c1NC(=O)N(C)C[C@@H]1OCCCC[C@@H](C)Oc2ccc(NC(=O)C3CCCCC3)cc2C(=O)N([C@@H](C)CO)C[C@@H]1C = inactive
C[C@H]1CN([C@@H](C)CO)C(=O)CCCn2nncc2CO[C@@H]1CN(C)C(=O)Nc1ccc(C(F)(F)F)cc1 = active
COc1ccc2c3c([nH]c2c1)[C@@H](CO)N(C[C@]13CCN(CC1)C(=O)NC(C)C)C(=O)CN1CCOCC1 = inactive
C[C@@H]1CN([C@H](C)CO)C(=O)CCCn2nncc2CO[C@H]1CN(C)C(=O)Nc1ccc(C(C)(C)C)cc1 = inactive
COCCNC(=O)c1cn(C)nc1OC = inactive
C[C@H](CO)N1C[C@H](C)[C@@H](CN(C)C(=O)Nc2ccc(C(F)(F)F)cc2)OCc2cnnn2CCCC1=O = inactive
C[C@@H]1CN([C@@H](C)CO)C(=O)CCCn2nncc2CO[C@H]1CN(C)C(=O)Nc1ccc(C(F)(F)F)cc1 = inactive

Please examine the following record next.
Hi, sorry to bother you, what did the test record for C[C@H](CO)N1C[C@H](C)[C@H](CN(C)C(=O)Nc2ccc(C(F)(F)F)cc2)OCc2cnnn2CCCC1=O ?
inactive

All values here come from the antibiotic and cytotoxicity screens of Wong et al. (2023).
